biological target: UniProt Q8N6T7; test: Inhibition of human SIRT6 (1 to 294 residues) expressed in Escherichia coli Rosetta (DE3) at 250 uM using H3K9AcWW as substrate preincubated for 15 mins followed by substrate addition measured after 1 hr by HPLC analysis relative to control
Sequence (Q8N6T7 whole entry, the tested form may be a part): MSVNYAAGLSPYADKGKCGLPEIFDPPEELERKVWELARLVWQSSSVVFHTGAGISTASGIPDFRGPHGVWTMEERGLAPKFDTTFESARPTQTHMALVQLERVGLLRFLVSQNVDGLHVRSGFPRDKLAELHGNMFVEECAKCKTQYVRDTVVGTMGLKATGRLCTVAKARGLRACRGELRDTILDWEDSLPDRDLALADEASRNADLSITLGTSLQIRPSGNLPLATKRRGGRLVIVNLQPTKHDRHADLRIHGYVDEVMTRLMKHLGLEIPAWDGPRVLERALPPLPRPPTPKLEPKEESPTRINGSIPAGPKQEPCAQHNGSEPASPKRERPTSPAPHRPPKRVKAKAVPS
Residues, ends and D or L forms follow the SMILES beside them. *: point of attachment. X6 = O=C(CCC*)NCc1ccc([N+](=O)[O-])cc1; X10 = O=C(O)CCCNC(=O)CCC*
property_name: inhibition

>>> observed_result("C[C@H](NC(=O)[C@@H](NC(=O)[C@H](CCC(N)=O)NC(=O)[C@@H](N)CCCCN)[C@@H](C)O)C(=O)N[C@@H](CCCNC(=N)N)C(=O)N[C@@H](CSCCCC(=O)NCc1ccc([N+](=O)[O-])cc1)C(=O)N[C@@H](CO)C(=O)N[C@H](C(=O)NCC(=O)NCC(=O)N[C@@H](CCCCN)C(=O)O)[C@@H](C)O (H-KQTARC(X6)STGGK-OH)")
"26%"
>>> observed_result("C[C@H](NC(=O)[C@@H](NC(=O)[C@H](CCC(N)=O)NC(=O)[C@@H](N)CCCCN)[C@@H](C)O)C(=O)N[C@@H](CCCNC(=N)N)C(=O)N[C@@H](CSCCCC(=O)NCCCC(=O)O)C(=O)N[C@@H](CO)C(=O)N[C@H](C(=O)NCC(=O)NCC(=O)N[C@@H](CCCCN)C(=O)O)[C@@H](C)O (H-KQTARC(X10)STGGK-OH)")
"43%"
